Consider the following molecules and their measured IC50 readings.
subject.of.test: Glutaminyl-peptide cyclotransferase (Homo sapiens)
Sequence (Q16769 whole entry): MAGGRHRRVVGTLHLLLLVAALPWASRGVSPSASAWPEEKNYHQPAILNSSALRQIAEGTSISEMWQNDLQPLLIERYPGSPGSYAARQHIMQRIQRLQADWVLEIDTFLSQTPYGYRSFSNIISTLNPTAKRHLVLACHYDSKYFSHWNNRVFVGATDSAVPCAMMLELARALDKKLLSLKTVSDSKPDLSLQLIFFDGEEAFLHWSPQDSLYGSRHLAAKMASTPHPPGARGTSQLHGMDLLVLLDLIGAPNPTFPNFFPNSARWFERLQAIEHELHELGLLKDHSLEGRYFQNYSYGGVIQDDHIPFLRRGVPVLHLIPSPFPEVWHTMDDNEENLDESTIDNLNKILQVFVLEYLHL
assay.name: Inhibition of glutaminyl cyclase (unknown origin)
Please don't drop the unit; write it after the number.

A selection of reference data follows.
| compound.structure | experimental.result |
| --- | --- |
| Cc1cncn1CCCn1cc(C2=C(c3ccc(OCCCN4CCN(c5ccccc5)CC4)cc3)C(=O)NC2=O)c2ccccc21 | 9.55 µM |
| Cc1cncn1CCCn1cc(C2=C(c3ccc(OCCCCn4ccnc4)cc3)C(=O)NC2=O)c2ccccc21 | 11.2 µM |

# get_value(readout='IC50', item= "Cc1cncn1CCCn1cc(C2=C(c3cc(F)c(F)cc3F)C(=O)NC2=O)c2ccccc21" )
2.6 µM

Now this one: "COc1ccccc1C1=C(c2cn(CCCn3cncc3C)c3ccccc23)C(=O)NC1=O"
1.71 µM

Now this one: "COc1cc(C2=C(c3cn(CCCn4cncc4C)c4ccccc34)C(=O)NC2=O)ccc1OCCCCN1CCCCC1"
0.83 µM

Now this one: "COc1ccc(C2=C(c3cn(CCCn4cncc4C)c4ccccc34)C(=O)NC2=O)cc1OC"
4.59 µM

Now this one: "Cc1cncn1CCCn1cc(C2=C(c3cccc([N+](=O)[O-])c3)C(=O)NC2=O)c2ccccc21"
6.13 µM

Now this one: "COc1cc(C2=C(c3cn(CCCn4cncc4C)c4ccccc34)C(=O)NC2=O)ccc1OCCCCc1ccccc1"
26.2 µM

Now this one: "COc1cc(C2=C(c3cn(CCCn4cncc4C)c4ccccc34)C(=O)NC2=O)ccc1OCCCc1ccccc1"
18.1 µM

Now this one: "Cc1cncn1CCCn1cc(C2=C(c3ccccc3[N+](=O)[O-])C(=O)NC2=O)c2ccccc21"
1.22 µM

Now this one: "Cc1cncn1CCCn1cc(C2=C(c3ccc(OCCCCc4ccccc4)cc3)C(=O)NC2=O)c2ccccc21"
6.99 µM

Now this one: "Cc1cncn1CCCn1cc(C2=C(c3ccc([N+](=O)[O-])cc3)C(=O)NC2=O)c2ccccc21"
1.89 µM

Now this one: "COc1cc(C2=C(c3cn(CCCn4cncc4C)c4ccccc34)C(=O)NC2=O)ccc1OCCCN1CCOCC1"
7.02 µM

Now this one: "COc1cccc(C2=C(c3cn(CCCn4cncc4C)c4ccccc34)C(=O)NC2=O)c1"
6.32 µM

Now this one: "Cc1cncn1CCCn1cc(C2=C(c3ccc(OCCCCN4CCCCC4)cc3)C(=O)NC2=O)c2ccccc21"
2.2 µM

Now this one: "Cc1cncn1CCCn1cc(C2=C(c3ccc(OCCCCN4CCN(C)CC4)cc3)C(=O)NC2=O)c2ccccc21"
3.24 µM

Now this one: "Cc1cncn1CCCn1cc(C2=C(c3cccc(F)c3)C(=O)NC2=O)c2ccccc21"
10.8 µM

====

// endpoint IC50 / system Glycogen synthase kinase-3 beta (Homo sapiens)
Please don't drop the unit; write it after the number.

| compound.structure | IC50 |
| --- | --- |
| Cc1cncn1CCCn1cc(C2=C(c3ccc(OCCCN4CCOCC4)cc3)C(=O)NC2=O)c2ccccc21 | 178 nM |

# get_value(readout='IC50', item= "COc1cc(C2=C(c3cn(CCCn4cncc4C)c4ccccc34)C(=O)NC2=O)ccc1OCCCCc1ccccc1" )
91 nM

Now this one: "Cc1cncn1CCCn1cc(C2=C(c3ccc(OCCCCn4ccnc4)cc3)C(=O)NC2=O)c2ccccc21"
133 nM

Now this one: "COc1cccc(C2=C(c3cn(CCCn4cncc4C)c4ccccc34)C(=O)NC2=O)c1"
55 nM

Now this one: "COc1cc(C2=C(c3cn(CCCn4cncc4C)c4ccccc34)C(=O)NC2=O)ccc1OCCCc1ccccc1"
177 nM

Now this one: "Cc1cncn1CCCn1cc(C2=C(c3ccc(OCCCc4ccccc4)cc3)C(=O)NC2=O)c2ccccc21"
182 nM

Now this one: "COc1cc(C2=C(c3cn(CCCn4cncc4C)c4ccccc34)C(=O)NC2=O)ccc1OCCCN1CCOCC1"
89 nM

Now this one: "Cc1cccc(C2=C(c3cn(CCCn4cncc4C)c4ccccc34)C(=O)NC2=O)c1"
103 nM

====

// endpoint pIC50 / system Glycogen synthase kinase-3 beta (Homo sapiens)
# pIC50: negative log10 of molar concentration; output just the value

A selection of reference data follows.
| compound.structure | pIC50 |
| --- | --- |
| Cc1cncn1CCCn1cc(C2=C(c3ccc(OCCCCc4ccccc4)cc3)C(=O)NC2=O)c2ccccc21 | 6.72 |
| Cc1cncn1CCCn1cc(C2=C(c3ccc(OCCCCN4CCOCC4)cc3)C(=O)NC2=O)c2ccccc21 | 7.24 |
| Cc1cncn1CCCn1cc(C2=C(c3cccc([N+](=O)[O-])c3)C(=O)NC2=O)c2ccccc21 | 7.33 |
| Cc1cncn1CCCn1cc(C2=C(c3ccc(OCCCCN4CCN(c5ccccc5)CC4)cc3)C(=O)NC2=O)c2ccccc21 | 6.70 |
| COc1cc(C2=C(c3cn(CCCn4cncc4C)c4ccccc34)C(=O)NC2=O)ccc1OCCCCN1CCCCC1 | 7.19 |

Moving on to the next compound.
# get_value(readout='pIC50', item= "Cc1cncn1CCCn1cc(C2=C(c3ccccc3)C(=O)NC2=O)c2ccccc21" )
7.85
